Origin of measurements: PubChem BioAssay (NCI)

Consider the following molecules; for each one, report its TGI.
# Test system: SW-620 colon
# assayRemarks: NCI tumour cell line growth inhibition, 48 h
A number alone suffices; assume µM.

Given the molecule O=C(CCCc1ccc(N(CCCl)CCCl)cc1)NCc1ccccc1 , what is its reported TGI? 73.4

Another molecule: CN1CCN(Cc2ccc(NC(=O)c3cncc(C#Cc4cnc(N)c5ncccc45)c3)cc2C(F)(F)F)CC1 1.36

Another molecule: CC(C)[Si](OC12CCC(CC1O)CC2CO)(C(C)C)C(C)C (stereo not drawn) 52.4

Another molecule: Cc1cn([C@@H]2O[C@H](CO[Si](C)(C)C(C)(C)C)[C@]3(O[C@H]3C(=O)NO)[C@H]2O[Si](C)(C)C(C)(C)C)c(=O)[nH]c1=O 4.28

Another molecule: COC(=O)c1c2c(c(C)[n+]([O-])c1C)C(=O)C(NCc1ccc(OC)cc1)=CC2=O 4.26

----------
# System: EKVX NSCLC
# assayRemarks: NCI tumour cell line growth inhibition, 48 h
measureName: TGI

Given the molecule NC1=C(O)c2cccc3cccc(c23)C1=O , what is its reported TGI? > 100 µM

Another molecule: O=C1c2ccccc2-c2nnc3c(c21)Cc1ccccc1C3 > 10 µM

Another molecule: O=c1c2ccccc2nc(-c2cccc([N+](=O)[O-])c2)n1O > 100 µM

Another molecule: C[C@@H]1CN2[C@H]3[C@@H]1CC[C@]31CCC(=O)O[C@]1(C)[C@H]1CC[C@H]3CCC=C3[C@@H]12 > 30 µM

Another molecule: C#CCOC(=O)C(N)CC(N)=O (configuration not stated) > 100 µM

Another molecule: O=C(/C=C/c1ccccc1)NC1C=Nc2ccc([N+](=O)[O-])cc2NC1=O (configuration not stated) > 100 µM

Another molecule: O=c1[nH]c2ccccc2n1C1CCNCC1 > 100 µM

Another molecule: CC(C)(C)CC(C)(C)c1ccc(OCCO)cc1 30.1 mg/L

Another molecule: Cc1nnc2n1N=C(c1cc(F)c(Cl)cc1Cl)/C(=C/c1ccc(-c3ccc([N+](=O)[O-])cc3)o1)S2 > 100 µM

Another molecule: COc1cc2c(cc1OS(C)(=O)=O)N=C[C@@H]1CCCN1C2=O > 100 µM

Another molecule: CN(C)c1cccc(-c2cc(=S)c3cc4c(cc3[nH]2)OCO4)c1 > 100 µM

Another molecule: Clc1ccc(Cc2nc3ccccc3o2)cc1 > 100 µM

----------
Consider the following compounds; for each one, report its TGI.
# Tested on: UACC-257 melanoma
# assayRemarks: NCI tumour cell line growth inhibition, 48 h
A number alone suffices; assume µM.

Give TGI (UACC-257 melanoma) of the following compound: C=C1c2nc3ccccc3n2C=C(c2ccc(OC)cc2)N1c1ccc(OCCN2CCCCC2)cc1 10.8

Another compound: CC(=O)N1C=Cc2c(c(C)c3c([nH]c4ccccc43)c2C)C1 29.6

Another compound: CCCc1nnc2sc(COc3ccc(OCc4nn5c(CCC)nnc5s4)c(Cl)c3)nn12 51.1

Another compound: CN(C)CCNC(=O)c1cc2c3cc(Cl)ccc3[nH]c2c2ncccc12 14.9

Another compound: CC(C)=CC[C@@H]1CC2(CC=C(C)C)C(=O)C(OC3(C(=O)c4ccccc4)C(=O)C4(CC=C(C)C)C[C@@H](CC=C(C)C)C(C)(C)C(CC=C(C)C)(C4=O)C3=O)(C(=O)c3ccccc3)C(=O)C(CC=C(C)C)(C2=O)C1(C)C (some centres not stated) 3.77

----------
# Test system: LOX IMVI melanoma
# assayRemarks: NCI tumour cell line growth inhibition, 48 h
Consider the following molecules; for each one, report its TGI.

Give TGI (LOX IMVI melanoma) of the following molecule: N/N=c1/nc2n(c3ncccc13)C=CNN2 > 100 µM

Another molecule: O=C(/C=C/c1ccccc1)NC1C=Nc2ccc([N+](=O)[O-])cc2NC1=O (configuration not stated) > 100 µM

Another molecule: NC1=C(O)c2cccc3cccc(c23)C1=O > 100 µM

Another molecule: Cc1ccc(S(=O)(=O)n2cc(/C=C/C#N)c(-c3cn(S(=O)(=O)c4ccc(C)cc4)cc3-c3cn(S(=O)(=O)c4ccc(C)cc4)cc3/C=C/C#N)c2)cc1 > 100 µM

Another molecule: CN(C)CCNC(=O)c1cc2c3cc(Cl)ccc3[nH]c2c2ncccc12 2.92 µM

Another molecule: Cn1ncnc1[C@@H]1c2n[nH]c(=O)c3cc(F)cc(c23)N[C@H]1c1ccc(F)cc1 > 100 µM

Another molecule: COc1cc([C@@H]2c3cc4c(cc3[C@H](OC3OC5COC(c6ccco6)OC5C(O)C3O)C3COC(=O)[C@@H]32)OCO4)cc(OC)c1OC (some centres not stated) > 100 µM

Another molecule: COc1ccc(C(=O)C(C(=O)CCC(=O)Nc2ccc(Cl)c(Cl)c2)c2ccc(OC)cc2)cc1 (configuration not stated) > 100 µM

Another molecule: CN1CCN(c2cc3[nH]c4cc(O)cc(O)c4c(=O)c3cc2N)CC1 41.5 µM

Another molecule: CCCc1nnc2sc(COc3ccc(OCc4nn5c(CCC)nnc5s4)c(Cl)c3)nn12 > 100 µM

Another molecule: O=C(O)c1ccccc1CN1CCCC(C(=O)O)C1 (configuration not stated) > 100 µM

Another molecule: O=C(O)CN1CCSc2ccccc2CN(CC(=O)O)CCSc2ccccc2C1 > 100 µM

Another molecule: O=C(O)/C=C\C(=O)Nc1ccc2c(c1)-c1ccccc1C2 > 100 µM

Another molecule: Nc1ccc(/C=C/c2ccc3ncccc3c2)cc1 > 100 µM

Another molecule: C[C@@H]1C(=O)CC2C(C)(C)CCC[C@]2(C)[C@@]12CC[C@]1(C=COC1)O2 (some centres not stated) > 100 µM

Another molecule: CCOC(=O)c1nc2ccccc2nc1Oc1cc(OC)cc(OC)c1 > 100 µM

Another molecule: CN1C(=O)C(c2c[nH]c3ccccc23)=C(c2c[nH]c3ccccc23)C1=O 9.3 µM

Another molecule: CC(=O)N1C/C(=C\c2ccccc2)C(=O)/C(=C/c2ccccc2)C1 9.01 µM

Another molecule: CCCCNC(=O)OCCN=c1c2ccccc2ccc2ccccc12 > 100 µM

Another molecule: Cc1c2cnccc2c(C)c2c1c1ccccc1n2CCOC(=O)c1ccccc1 33.7 µM

Another molecule: O=C1Cc2c(-c3cccs3)cc(-c3ccccc3)nc2-c2ccccc2N1 > 100 µM

Another molecule: CC1(OCc2ccccc2)C(=O)N2C1NCC2(C)C (configuration not stated) > 100 µM

Another molecule: O=C1C2C3C4C1C1C2[C@H](OCc2ccccc2)C3C1[C@H]4OCc1ccccc1 (some centres not stated) > 100 µM

Another molecule: NS(=O)(=O)c1ccc(NC(=S)NC(=O)Nc2ccc(Cl)c(Cl)c2)cc1 19.1 µM

Another molecule: CC(=O)C1(O)CC2(c3ccccc3)C(=O)C1(c1ccccc1)C(c1ccccc1)=C2c1ccccc1 (configuration not stated) > 100 µM

Another molecule: CN(C)CC1CC/C(=C\c2ccc(Cl)c(Cl)c2)C1=O (configuration not stated) 18.4 µM

Another molecule: CC(CN1NC12CCCC2)N1NC12CCCC2 (configuration not stated) > 100 µM

----------
# System: ACHN renal
# assayRemarks: NCI tumour cell line growth inhibition, 48 h
Consider the following compounds; for each one, report its TGI.
A number alone suffices; assume µM.

Given the compound COc1cc2nc3n(c2cc1OC)C(O)c1c(Cl)nc(SC)nc1S3 (stereo not drawn) , what is its reported TGI? 42.2

Another compound: COc1cc2nc(-c3cccs3)nc(Nc3cccc([N+](=O)[O-])c3)c2cc1OC 38.3

Another compound: CC(C)=CCC/C(C)=C/CC/C(C)=C/CSC[C@H](NC(=O)CCCCCN1CCN(C)CC1)C(=O)NC1CCCCCC1 3.21

Another compound: CC[C@@H]1/C=C/C=C/C[C@H](C)[C@@H](O)[C@@H](C)C(=O)[C@H](C)[C@@H](O)[C@H](C)C(=O)[C@H](C)[C@@H](O)[C@H](C)/C=C/C(=O)O[C@H]2[C@@H](C)[C@@H](CC1)O[C@@]1(CC[C@@H](C)[C@@H](CC(C)O)O1)[C@@H]2C (stereo partly drawn) 16.7

----------
# System: COLO 205 colon
# assayRemarks: NCI tumour cell line growth inhibition, 48 h; in the data active = GI50 below about 0.43 µM; inactive = the rest
One label from this list, please: true (1) (active), false (0) (inactive)

Tell me the recorded outcome of this test for O=C(/C=C\c1ccc(O)c(O)c1)c1ccccc1O . false (0)

Another compound: CC[C@@]1(OP(=O)(O)O)C(=O)OCc2c1cc1n(c2=O)Cc2cc3ccccc3nc2-1 false (0)

Another compound: O=[N+]([O-])c1ccc(C2=NCCO2)cc1 false (0)

Another compound: COC(=O)[C@@H](C)C[C@H](Cc1ccccc1)NC(=O)c1nc([C@@H](C[C@H](C(C)C)N(C)C(=O)[C@@H](NC(=O)[C@H]2C[C@H](O)CCN2C)C(C)C)OC(C)=O)sc1C(C)C true (1)
